ASSAYED_TARGET: T1, human CD3 epsilon 1-26_Fc fusion protein (human)
T1 construct: also called human CD3 1-26_Fc fusion protein
METHOD_SUMMARY: SPR, human IgG1 format, graded relative to chimeric SP34; one grade for human and cynomolgus protein
MEASURE: binding result

Solved cases (5 shown):
INSERT INTO measurements (binder, observed_measurement) VALUES
  ('VH1/VL22 (antibody, human IgG1, kappa, V domains shown, IgG1; also called humanized SP34 VH1/VL22 antibody; copies: 2 + 2) VH: EVQLVESGGGLVQPGGSLRLSCAASGFTFNTYAMNWVRQAPGKGLEWVARIRSKYNNYATYYADSVKGRFTISRDDSKNTLYLQMNSLRAEDTAVYYCVRHGNFGNSYVSWFAYWGQGTTVTVSS VL: EIVVTQSPATLSVSPGERATLSCRSSTGAVTTSNYANWVQQKPGQAFRGLIGGANKRAPGVPARFSGSLSGDEATLTISSLQSEDFAVYYCALWYSNLWVFGQGTKLEIKR', 'binds'),
  ('VH1/VL19 (antibody, human IgG1, kappa, V domains shown, IgG1; also called humanized SP34 VH1/VL19 antibody; copies: 2 + 2) VH: EVQLVESGGGLVQPGGSLRLSCAASGFTFNTYAMNWVRQAPGKGLEWVARIRSKYNNYATYYADSVKGRFTISRDDSKNTLYLQMNSLRAEDTAVYYCVRHGNFGNSYVSWFAYWGQGTTVTVSS VL: EIVVTQSPATLSVSPGERATLSCRSSTGAVTTSNYANWVQEKPGQAFRGLIGGANKRAPGVPARFSGSLSGTEATLTISSLQSEDFAVYYCALWYSNLWVFGQGTKLEIKR', 'binds'),
  ('VH1/VL8 (antibody, human IgG1, kappa, V domains shown, IgG1; also called humanized SP34 VH1/VL8 antibody; copies: 2 + 2) VH: EVQLVESGGGLVQPGGSLRLSCAASGFTFNTYAMNWVRQAPGKGLEWVARIRSKYNNYATYYADSVKGRFTISRDDSKNTLYLQMNSLRAEDTAVYYCVRHGNFGNSYVSWFAYWGQGTTVTVSS VL: EAVVTQSPATLSVSPGERATLSCRSSTGAVTTSNYANWVQEKPGQAFRGLIGGANKRAPGVPARFSGSGSGDEATLTISSLQSEDFAVYFCALWYSNLWVFGQGTKLEIKR', 'binds'),
  ('Chimeric SP34 (antibody, human IgG1, kappa, V domains shown, IgG1; also called chimeric SP34 antibody; SP34 chimera) VH: EVQLVESGGGLVQPKGSLKLSCAASGFTFNTYAMNWVRQAPGKGLEWVARIRSKYNNYATYYADSVKDRFTISRDDSQSILYLQMNNLKTEDTAMYYCVRHGNFGNSYVSWFAYWGQGTLVTVSA VL: QAVVTQESALTTSPGETVTLTCRSSTGAVTTSNYANWVQEKPDHLFTGLIGGTNKRAPGVPARFSGSLIGDKAALTITGAQTEDEAIYFCALWYSNLWVFGGGTKLTVLR', 'binds'),
  ('VH1/VL11 (antibody, human IgG1, kappa, V domains shown, IgG1; also called humanized SP34 VH1/VL11 antibody; copies: 2 + 2) VH: EVQLVESGGGLVQPGGSLRLSCAASGFTFNTYAMNWVRQAPGKGLEWVARIRSKYNNYATYYADSVKGRFTISRDDSKNTLYLQMNSLRAEDTAVYYCVRHGNFGNSYVSWFAYWGQGTTVTVSS VL: EAVVTQSPATLSVSPGERATLSCRSSTGAVTTSNYANWVQEKPGQAFRGLIGGANKRAPGVPARFSGSGSGTEATLTISSLQSEDFAVYFCALWYSNLWVFGQGTKLEIKR', 'binds');

The binder listed as VH1/VL6 (antibody, human IgG1, kappa, V domains shown, IgG1; also called humanized SP34 VH1/VL6 antibody; copies: 2 + 2) VH: EVQLVESGGGLVQPGGSLRLSCAASGFTFNTYAMNWVRQAPGKGLEWVARIRSKYNNYATYYADSVKGRFTISRDDSKNTLYLQMNSLRAEDTAVYYCVRHGNFGNSYVSWFAYWGQGTTVTVSS VL: EAVVTQSPATLSVSPGERATLSCRSSTGAVTTSNYANWVQEKPGQAPRGLIGGANKRAPGVPARFSGSLSGDEATLTISSLQSEDFAVYFCALWYSNLWVFGQGTKLEIKR has a reported binding result of binds

The binder listed as VH1/VL15 (antibody, human IgG1, kappa, V domains shown, IgG1; also called humanized SP34 VH1/VL15 antibody; copies: 2 + 2) VH: EVQLVESGGGLVQPGGSLRLSCAASGFTFNTYAMNWVRQAPGKGLEWVARIRSKYNNYATYYADSVKGRFTISRDDSKNTLYLQMNSLRAEDTAVYYCVRHGNFGNSYVSWFAYWGQGTTVTVSS VL: EAVVTQSPATLSVSPGERATLSCRSSTGAVTTSNYANWVQQKPGQAFRGLIGGANKRAPGVPARFSGSLSGDEATLTISSLQSEDFAVYFCALWYSNLWVFGQGTKLEIKR has a reported binding result of binds
